pIC50 values, listed per item
Molecular target: human MAGL (Homo sapiens (Human), UniProt Q99685)
Sequence (Q99685 2-303): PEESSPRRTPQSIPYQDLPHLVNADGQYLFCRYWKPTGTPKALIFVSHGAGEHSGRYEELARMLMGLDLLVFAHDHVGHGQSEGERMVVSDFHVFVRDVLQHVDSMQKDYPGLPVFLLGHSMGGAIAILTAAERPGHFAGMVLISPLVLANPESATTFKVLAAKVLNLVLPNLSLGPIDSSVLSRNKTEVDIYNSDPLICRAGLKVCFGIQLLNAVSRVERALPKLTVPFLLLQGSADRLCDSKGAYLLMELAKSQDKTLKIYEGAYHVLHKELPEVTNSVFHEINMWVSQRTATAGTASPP
Experiment: MAGL inhibition potency assay with 4NPA substrate (methods of Table C)
Assay type: biochemical
Conditions: Method 14: Reaction Biology MAGL enzyme, 6 nM; read-out: MAGL Potency (Detection Method)
pIC50: −log10 of the molar value.

Completed entries (count: 2):
[
  {
    "record-smiles": "Cc1cc(C2CC3(C2)CN(C(=O)c2cc(O)ccc2F)C3)n(-c2cc(F)ccc2C)n1",
    "measured-property": "pIC50",
    "recorded-measurement": "> 7.30"
  },
  {
    "record-smiles": "Cc1ccccc1-n1nccc1C1CC2(C1)CN(C(=O)c1cc(O)ccc1F)C2",
    "measured-property": "pIC50",
    "recorded-measurement": "6.82 to 7.30"
  }
]

Item Cc1cc(C2CC3(C2)CN(C(=O)c2cc(O)ccc2F)C3)n(-c2ccccc2C(F)(F)F)n1 was tested on human MAGL (Homo sapiens (Human), UniProt Q99685); the reported pIC50 is > 7.30

Numbers sourced from patent US20250170100A1.
